Biological target: DUB activity in cells (NCI-H929, Z138, MM.1S, A375) (Homo sapiens, UniProt Q93008)
Construct: endogenous in cells; host or cells: NCI-H929, Z138, MM.1S, A375
Sequence (Q93008 whole entry): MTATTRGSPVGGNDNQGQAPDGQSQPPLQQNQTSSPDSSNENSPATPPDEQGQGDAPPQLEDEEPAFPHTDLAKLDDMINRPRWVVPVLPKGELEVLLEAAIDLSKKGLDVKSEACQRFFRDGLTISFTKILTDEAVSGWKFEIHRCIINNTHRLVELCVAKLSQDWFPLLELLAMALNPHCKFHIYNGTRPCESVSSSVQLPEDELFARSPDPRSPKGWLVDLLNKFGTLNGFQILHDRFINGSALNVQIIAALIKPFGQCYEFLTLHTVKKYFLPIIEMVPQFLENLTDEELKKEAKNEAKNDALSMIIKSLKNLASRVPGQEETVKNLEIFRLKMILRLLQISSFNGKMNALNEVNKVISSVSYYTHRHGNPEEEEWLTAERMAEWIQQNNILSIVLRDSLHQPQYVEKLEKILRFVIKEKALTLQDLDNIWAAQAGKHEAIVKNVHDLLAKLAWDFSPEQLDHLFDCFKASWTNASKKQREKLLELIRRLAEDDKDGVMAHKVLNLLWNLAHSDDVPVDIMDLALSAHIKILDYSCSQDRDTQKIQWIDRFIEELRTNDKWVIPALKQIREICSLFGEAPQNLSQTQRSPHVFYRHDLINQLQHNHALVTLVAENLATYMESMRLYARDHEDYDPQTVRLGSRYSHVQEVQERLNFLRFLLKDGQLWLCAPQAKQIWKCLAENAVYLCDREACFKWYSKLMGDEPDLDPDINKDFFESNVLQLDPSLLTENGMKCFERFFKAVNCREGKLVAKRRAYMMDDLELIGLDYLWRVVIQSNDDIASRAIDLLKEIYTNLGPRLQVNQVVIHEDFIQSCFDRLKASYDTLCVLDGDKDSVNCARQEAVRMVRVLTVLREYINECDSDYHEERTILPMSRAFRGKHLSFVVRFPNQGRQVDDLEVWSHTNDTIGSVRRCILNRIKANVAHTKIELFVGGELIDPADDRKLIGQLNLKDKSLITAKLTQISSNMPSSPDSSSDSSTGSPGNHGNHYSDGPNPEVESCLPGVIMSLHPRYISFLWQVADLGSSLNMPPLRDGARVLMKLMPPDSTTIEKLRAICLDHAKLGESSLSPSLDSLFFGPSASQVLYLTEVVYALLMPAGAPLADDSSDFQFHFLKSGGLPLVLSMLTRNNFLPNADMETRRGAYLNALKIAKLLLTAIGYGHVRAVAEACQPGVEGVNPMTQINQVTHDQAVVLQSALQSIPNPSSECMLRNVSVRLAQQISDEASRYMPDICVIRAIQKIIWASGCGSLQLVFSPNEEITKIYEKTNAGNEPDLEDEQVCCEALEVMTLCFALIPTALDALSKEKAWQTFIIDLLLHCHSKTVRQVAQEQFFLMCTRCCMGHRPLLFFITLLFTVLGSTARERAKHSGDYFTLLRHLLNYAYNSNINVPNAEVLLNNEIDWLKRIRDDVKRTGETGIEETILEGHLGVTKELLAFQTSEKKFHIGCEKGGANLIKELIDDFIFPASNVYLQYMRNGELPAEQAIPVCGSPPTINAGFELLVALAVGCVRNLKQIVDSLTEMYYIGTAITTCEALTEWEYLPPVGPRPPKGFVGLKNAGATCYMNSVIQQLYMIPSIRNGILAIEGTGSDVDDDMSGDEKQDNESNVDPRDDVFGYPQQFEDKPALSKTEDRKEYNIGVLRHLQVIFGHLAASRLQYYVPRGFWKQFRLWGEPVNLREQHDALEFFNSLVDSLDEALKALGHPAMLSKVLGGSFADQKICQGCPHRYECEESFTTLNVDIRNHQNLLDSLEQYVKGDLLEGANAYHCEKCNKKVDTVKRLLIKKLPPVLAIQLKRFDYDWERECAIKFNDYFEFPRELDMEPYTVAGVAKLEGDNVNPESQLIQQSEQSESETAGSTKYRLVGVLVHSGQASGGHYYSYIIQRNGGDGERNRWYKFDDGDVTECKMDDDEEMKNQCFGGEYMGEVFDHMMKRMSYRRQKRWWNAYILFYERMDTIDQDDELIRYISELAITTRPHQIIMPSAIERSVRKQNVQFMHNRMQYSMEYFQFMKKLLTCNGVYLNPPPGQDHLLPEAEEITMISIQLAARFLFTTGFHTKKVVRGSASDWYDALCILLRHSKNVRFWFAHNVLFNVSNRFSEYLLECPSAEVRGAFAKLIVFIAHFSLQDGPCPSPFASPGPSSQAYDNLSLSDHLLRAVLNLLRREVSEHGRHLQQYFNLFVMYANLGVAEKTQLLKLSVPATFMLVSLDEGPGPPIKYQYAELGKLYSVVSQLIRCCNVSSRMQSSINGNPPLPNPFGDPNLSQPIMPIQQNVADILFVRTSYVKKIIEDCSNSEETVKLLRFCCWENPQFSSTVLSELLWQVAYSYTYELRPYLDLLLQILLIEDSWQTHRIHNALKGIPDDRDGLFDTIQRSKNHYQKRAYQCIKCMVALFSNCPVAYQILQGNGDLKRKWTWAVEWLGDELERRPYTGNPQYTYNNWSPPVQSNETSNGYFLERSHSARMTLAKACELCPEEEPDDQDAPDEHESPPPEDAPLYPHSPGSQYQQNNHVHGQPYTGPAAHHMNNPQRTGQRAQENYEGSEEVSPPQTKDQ
Assay: HA-Ubiquitin-Vinylsulfone (HA-Ub-VS) cell labeling assay
Assay type: cell-based
Settings: compound tested at 5 μM; HA-Ub-VS labeling of USP9x in cells
The reader will find reported inhibition at 5 µM values listed item by item below.
MEASURED ENDPOINT: inhibition at 5 µM

>>> df
                                    compound  test_value
 0  N#C/C(=C\c1cccc(-c2ccc(N3CCCCC3)nc2)n1)C(=O)NC1(c2ccccc2)CCCC1 [Compound 65]   25 to 50%
 1  N#C/C(=C\c1ncc(Br)cc1Br)C(=O)NC1(c2ccc(-c3cccnc3)cc2)CCCC1 [Compound 39]   50 to 75%
 2  Cc1ccc(-c2ccc(C3(NC(=O)/C(C#N)=C/c4cccc(Br)n4)CCCC3)cc2)cc1CC(=O)O [Compound 98]       < 25%
 3  N#C/C(=C\c1cccc(C2CC2)n1)C(=O)NC1(c2ccc(-c3cccnc3)cc2)CCCC1 [Compound 67]   50 to 75%
 4  N#C/C(=C\c1cccc(C#CC2(O)CCCC2)n1)C(=O)NC1(c2ccncc2)CCCC1 [Compound 3-5]       < 25%
 5  N#C/C(=C\c1ncc(Br)cc1Br)C(=O)NC1(c2ccncc2)CCCC1 [Compound 3-3]   50 to 75%
 6  N#C/C(=C\c1cccc(Br)n1)C(=O)NC1(c2ccc(-c3cccc(C(=O)NS(=O)(=O)c4ccccc4)c3)cc2)CCCC1 [Compound 94]       < 25%
 7  CCOC(=O)c1ccc(-c2cccc(/C=C(\C#N)C(=O)NC3(c4ccccc4)CCCC3)n2)cc1 [Compound 31]   25 to 50%
 8  N#C/C(=C\c1ccc(Cl)c(F)c1)C(=O)NC1(c2ccccc2)CCCC1 [Compound 12]   25 to 50%
 9  N#C/C(=C\c1cccc(C#CCn2cccn2)n1)C(=O)NC1(c2ccccc2)CCCC1 [Compound 43]       ≥ 75%
10  COC(=O)c1cccc(-c2cccc(/C=C(\C#N)C(=O)NC3(c4ccccc4)CCCC3)n2)c1 [Compound 34]   50 to 75%
11  N#C/C(=C\c1cccc(-c2cnc3[nH]ccc3c2)n1)C(=O)NC1(c2ccccc2)CCCC1 [Compound 61]       < 25%
12  COC(=O)c1cccc(C2(NC(=O)/C(C#N)=C/c3cccc(Br)n3)CCCC2)c1 [Compound 48]   50 to 75%
13  COC(=O)c1cccc(-c2ccc(C3(NC(=O)/C(C#N)=C/c4ncc(Br)cc4Br)CCCC3)cc2)c1 [Compound 38]   50 to 75%
14  COc1ncccc1-c1ccc(C2(NC(=O)/C(C#N)=C/c3ncc(Br)cc3Br)CCCC2)cc1 [Compound 53]       < 25%
15  N#C/C(=C\c1ncc(Br)cc1Br)C(=O)NC1(c2ccc(Cl)cc2)CCCC1 [Compound 22]       ≥ 75%

###

Target: DUB activity in cells (NCI-H929, Z138, MM.1S, A375) (Homo sapiens, UniProt Q93008)
Construct: endogenous in cells; host or cells: NCI-H929, Z138, MM.1S, A375
Assay: HA-Ubiquitin-Vinylsulfone (HA-Ub-VS) cell labeling assay
Format: cell-based
Conditions: compound tested at 5 μM; HA-Ub-VS labeling of USP9x in cells
Overview of recorded inhibition at 5 µM for various compounds
MEASURED ENDPOINT: inhibition at 5 µM

>>> print(df.to_string())
                                    compound   measured_endpoint  test_value
 0  COC(=O)c1cncc(-c2cccc(/C=C(\C#N)C(=O)NC3(c4ccccc4)CCCC3)n2)c1 [Compound 33]  inhibition at 5 µM   50 to 75%
 1  CC(C)(C)OC(=O)c1cc(-c2cccc(/C=C(\C#N)C(=O)NC3(c4ccccc4)CCCC3)n2)cnc1Cl [Compound 49]  inhibition at 5 µM       ≥ 75%
 2  COc1ccc(C2(NC(=O)/C(C#N)=C/c3cccc(Br)n3)CCCC2)cc1 [Compound 16]  inhibition at 5 µM   50 to 75%
 3  N#C/C(=C\c1ccc(O)cc1)C(=O)NC1(c2ccccc2)CCCC1 [Compound 13]  inhibition at 5 µM       < 25%
 4  N#C/C(=C\c1ccc(Br)cn1)C(=O)NC1(c2ccccc2)CCCC1 [Compound 29]  inhibition at 5 µM   50 to 75%
 5  CN(C(=O)/C(C#N)=C/c1cccc(Br)n1)C1(c2ccccc2)CCCC1 [Compound 2-82]  inhibition at 5 µM   50 to 75%
 6  N#C/C(=C\c1cccc(Br)n1)C(=O)NC1(c2ccc(-c3ccc(C(=O)O)cc3)cc2)CCCC1 [Compound 91]  inhibition at 5 µM   25 to 50%
 7  N#C/C(=C\c1ncccc1F)C(=O)NC1(c2ccccc2)CCCC1 [Compound 8]  inhibition at 5 µM       < 25%
 8  N#C/C(=C\c1cccc(C2CC2)n1)C(=O)NC1(c2ccc(-c3ccc4[nH]ccc4c3)cc2)CCCC1 [Compound 99]  inhibition at 5 µM   25 to 50%
 9  N#C/C(=C\c1ncc(Br)cc1Br)C(=O)NC1(c2ccccc2)CCOCC1 [Compound 24]  inhibition at 5 µM       ≥ 75%
10  N#C/C(=C\c1cccc(Br)n1)C(=O)NC1(c2ccc(C#CC3(O)CCCC3)cc2)CCCC1 [Compound 76]  inhibition at 5 µM       ≥ 75%
11  N#C/C(=C\c1cccc(Br)n1)C(=O)NC1(c2ccc(CO)cc2)CCCC1 [Compound 86]  inhibition at 5 µM   25 to 50%
12  N#C/C(=C\c1ncc(Br)cc1Br)C(=O)NC1(c2ccc(-c3ccc(N4CCCCC4)nc3)cc2)CCCC1 [Compound 69]  inhibition at 5 µM       < 25%
13  N#C/C(=C\c1cccc(Br)n1)C(=O)NC1(c2ccc(C#CC3(O)COC3)cc2)CCCC1 [Compound 75]  inhibition at 5 µM   50 to 75%
14  CC(C)(C)OC(=O)COc1ccc(C2(NC(=O)/C(C#N)=C/c3cccc(Br)n3)CCCC2)cc1 [Compound 88]  inhibition at 5 µM       ≥ 75%
15  Cn1cc(-c2ccc(C3(NC(=O)/C(C#N)=C/c4ncc(Br)cc4Br)CCCC3)cc2)cn1 [Compound 77]  inhibition at 5 µM   50 to 75%
16  N#C/C(=C\c1cccc(Br)n1)C(=O)NC1(c2ccc(Br)cc2)CCCC1 [Compound 15]  inhibition at 5 µM       ≥ 75%
17  N#C/C(=C\c1ncc(Br)cc1Br)C(=O)NC1(c2ccccc2)CCCCC1 [Compound 23]  inhibition at 5 µM       ≥ 75%
18  CCOc1ncc(C(F)(F)F)cc1-c1ccc(C2(NC(=O)/C(C#N)=C/c3ncc(Br)cc3Br)CCCC2)cc1 [Compound 54]  inhibition at 5 µM       < 25%
19  N#C/C(=C\c1cccc(Br)n1)C(=O)NC1(c2ccncc2)CCCC1 [Compound 3-2]  inhibition at 5 µM   25 to 50%
20  N#C/C(=C\c1cccc(Br)n1)C(=O)NC1(c2ccccc2)CCOC1 (centres unmarked) [Compound 80]  inhibition at 5 µM       < 25%
21  CCOC(=O)CN1CCc2ccc(-c3cccc(/C=C(\C#N)C(=O)NC4(c5ccccc5)CCCC4)n3)cc2C1 [Compound 97]  inhibition at 5 µM   25 to 50%
22  N#C/C(=C\c1cccc(-c2cccnc2)n1)C(=O)NC1(c2ccccc2)CCCC1 [Compound 30]  inhibition at 5 µM   25 to 50%
23  N#C/C(=C\c1cccc(-c2ccc(CC(=O)O)cc2)n1)C(=O)NC1(c2ccccc2)CCCC1 [Compound 40]  inhibition at 5 µM       < 25%
24  N#C/C(=C\c1cccc(C#CC2(O)CCCC2)n1)C(=O)NC1(c2ccccc2)CCCC1 [Compound 45]  inhibition at 5 µM   50 to 75%
25  N#C/C(=C\c1nc(Br)ccc1F)C(=O)NC1(c2ccccc2)CCCC1 [Compound 6]  inhibition at 5 µM       ≥ 75%
26  N#C/C(=C\c1cccc(Br)n1)C(=O)NC1(c2ccnc(Cl)c2)CCCC1 [Compound 3-6]  inhibition at 5 µM   50 to 75%
27  C=C(C)c1ccc(C2(NC(=O)/C(C#N)=C/c3ncc(Br)cc3Br)CCCC2)cc1 [Compound 63]  inhibition at 5 µM       ≥ 75%
28  N#C/C(=C\c1cccc(Br)n1)C(=O)NC1(c2ccc(O)cc2)CCCC1 [Compound 79]  inhibition at 5 µM       ≥ 75%
29  N#C/C(=C\c1cccc(C2CC2)n1)C(=O)NC1(c2ccc(-c3cccc(C(=O)O)c3)cc2)CCCC1 [Compound 82]  inhibition at 5 µM       < 25%
30  CC(C)(C)OC(=O)c1cccc(-c2cccc(/C=C(\C#N)C(=O)NC3(c4ccccc4)CCCC3)n2)c1 [Compound 56]  inhibition at 5 µM   50 to 75%
31  N#C/C(=C\c1ncc(Br)cc1Br)C(=O)NC1(c2ccc(C(F)(F)F)cc2)CCCC1 [Compound 19]  inhibition at 5 µM       ≥ 75%
